half-life values for the compounds below.
Experiment: Pharmacokinetics after i.p. administration
Type: in vivo, mice
Settings: mouse, plasma (AZD8055); whole blood (RAPA), ip

# molecule-smiles, half-life / h
rows = [
    ("COc1ccc(-c2ccc3c(N4CCOC[C@@H]4C)nc(N4CCOC[C@@H]4C)nc3n2)cc1CO", 3.4),
    ("CO[C@H]1C[C@@H]2CC[C@@H](C)[C@@](O)(O2)C(=O)C(=O)N2CCCC[C@H]2C(=O)O[C@H]([C@H](C)C[C@@H]2CC[C@@H](O)[C@H](OC)C2)CC(=O)[C@H](C)/C=C(\\C)[C@@H](O)[C@@H](OC)C(=O)[C@H](C)C[C@H](C)/C=C/C=C/C=C/1C", 4.9),
]
